Sourced from paper PMC11822212

System: NIH-3T3 cells
METHOD_DESCRIPTION: qHTS cell viability (CellTiter-Glo, 72 h; primary screen), control cell line
Type: cell-based, mouse
CONDITION_PARAMETERS: NPC library; qHTS dose-response AUC, NIH3T3 control
Structures can show the parent of a compound that is named as a salt.
REPORTED_PROPERTY: NIH3T3_AUC

Known results for compounds:
| COMPOUND | REPORTED_PROPERTY | RECORDED_RESULT |
| --- | --- | --- |
| CCCC(C(=O)OCCN(CC)CC)(c1ccccc1)c1ccccc1 [Proadifen hydrochloride] | NIH3T3_AUC | 451.129 |
| Cc1ccsc1C(=CCCN1CCC[C@@H](C(=O)O)C1)c1sccc1C [Tiagabine hydrochloride] | NIH3T3_AUC | 484.889 |
| C[C@@H]1CN(CCCn2c3ccccc3c3ccccc32)C[C@H](C)N1.Cl.Cl [Rimcazole dihydrochloride] | NIH3T3_AUC | 464.02 |
| Clc1ccc(C(Cn2ccnc2)OCc2ccsc2Cl)c(Cl)c1 (stereo not drawn) [Tioconazole] | NIH3T3_AUC | 445.245 |

Parameter requested: NIH3T3_AUC. Apply to each item below.
1. CC[N+](CC)(CC)CCOC(=O)C(C1CCCC1)C1CCCC1 [Diponium bromide]
2. O=C(CCCN1CCC(O)(c2ccc(Br)cc2)CC1)c1ccc(F)cc1 [Bromperidol]
3. c1ccc(CC2=NCCN2)cc1 [Tolazoline hydrochloride]
4. O=C1OC(CCN2CCCCC2)OC1(c1ccccc1)c1ccccc1 (stereo not drawn) [Pipoxolan hydrochloride]
5. CCOc1ccc2nc(S(N)(=O)=O)sc2c1 [Ethoxzolamide]
6. CCCCCCCCOc1ccccc1C(=O)Nc1ccc(C(=O)OCC[N+](C)(CC)CC)cc1 [Octylonium bromide]

# output
1: 484.264; 2: 484.97; 3: 440.048; 4: 468.074; 5: 462.958; 6: 470.129

Parameter requested: NIH3T3_AUC. Apply to each item below.
1. [H]/N=C(/NCCCCC)N/N=C/c1c[nH]c2ccc(OC)cc12 [Tegaserod]
2. Cn1c(=O)c2c(ncn2CCO)n(C)c1=O [Etofylline]
3. OCCN1CCN(CCCN2c3ccccc3Sc3ccc(C(F)(F)F)cc32)CC1 [Fluphenazine]
4. CCOC(=O)[C@@](C)(N)Cc1ccc(O)c(O)c1 [Methyldopate hydrochloride]

# output
1: 444.55; 2: 458.11; 3: 476.772; 4: 431.18

Parameter requested: NIH3T3_AUC. Apply to each item below.
1. N=C(N)NN=C(/C=C/c1ccc([N+](=O)[O-])o1)/C=C/c1ccc([N+](=O)[O-])o1 [Nitrovin]
2. CCCCCCCCCCCCCCCC[N+](C)(C)CC [Ethylhexadecyldimethylammonium bromide]
3. O=C(N/N=C/c1ccccc1O)c1ccncc1 [Salinazid]
4. Cc1nc2ccccn2c(=O)c1CCN1CCC(C(=O)c2ccc(F)cc2)CC1 [Pirenperone]

# output
1: 385.648; 2: 447.34; 3: 449.726; 4: 477.551

###

Would you mind telling me the reported Percent viability of each entry?
Test system: MCC13 cells (VN-MCC)
METHOD_DESCRIPTION: qHTS cell viability (CellTiter-Glo, 72 h; primary and follow-up small molecule screen)
Assay type: cell-based, human
CONDITION_PARAMETERS: MCC13, 72h, Log (M) -7.24494
One number for each entry, in %.

Known results for compounds:
| COMPOUND | Percent viability (%) |
| --- | --- |
| CCS(=O)(=O)c1cccc(-c2cc(C(=O)NC3CCN(C)CC3)c(C)c3[nH]c4ncc(C)cc4c23)c1 [TAK-901, reference compound] | 119.7 |
| O=C(Nc1cccc(Cl)c1)Nc1ncc(CCNc2ncnc3ccsc23)s1 [SNS-314, reference compound] | 90.9 |
| Cc1cc(Nc2cc(N3CCN(C)CC3)nc(Sc3ccc(NC(=O)C4CC4)cc3)n2)[nH]n1 [Tozasertib, reference compound] | 103.0 |

Consider the record given below.
# input Return reported Percent viability; argument: CCn1cc(-c2ccnc3[nH]c(-c4cccc(CN(C)C)c4)cc23)c(-c2ccc(NC(=O)N(C)C)cc2)n1 [GSK-1070916A, reference compound]
# output 96.7
